Target Entity: recombinant Plk1 protein (Homo sapiens, UniProt P53350)
Construct: histidine tag (N)
Sequence (P53350 whole entry): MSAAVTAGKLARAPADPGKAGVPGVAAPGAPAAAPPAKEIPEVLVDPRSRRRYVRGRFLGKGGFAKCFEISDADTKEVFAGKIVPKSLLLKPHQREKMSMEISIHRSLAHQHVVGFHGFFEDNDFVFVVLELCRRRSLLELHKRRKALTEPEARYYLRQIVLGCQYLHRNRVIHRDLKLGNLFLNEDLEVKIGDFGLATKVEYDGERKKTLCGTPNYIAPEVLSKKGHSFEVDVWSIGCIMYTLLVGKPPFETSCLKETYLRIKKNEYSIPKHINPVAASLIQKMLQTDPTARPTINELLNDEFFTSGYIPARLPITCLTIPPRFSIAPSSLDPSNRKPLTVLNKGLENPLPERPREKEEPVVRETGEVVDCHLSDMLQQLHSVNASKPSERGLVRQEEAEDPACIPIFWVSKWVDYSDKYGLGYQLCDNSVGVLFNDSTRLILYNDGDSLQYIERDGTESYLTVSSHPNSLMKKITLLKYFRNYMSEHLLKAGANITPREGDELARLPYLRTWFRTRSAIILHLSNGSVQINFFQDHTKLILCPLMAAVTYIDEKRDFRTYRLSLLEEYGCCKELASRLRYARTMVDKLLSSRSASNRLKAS
Assay Procedure: Plk1 kinase activity inhibition assay (33P-ATP, alpha casein substrate, flash plates)
Study Conditions: enzymatic assay, 100 nM Li-ATP, 80 minutes at 30° C.
Experimental: The inhibition of Plk1 kinase activity can be measured using recombinant Plk1 protein expressed as an N-terminally histidine-tagged protein in SF9 insect cells and alpha casein as substrate. […] Phosphorylation of alpha casein is measured by counting the radioactivity bound to the plate for 60 sec. using a plate reader (Perkin Elmer, USA; Wallac Microbeta). By this method, the IC50 value of the Plk1 inhibition is determined as described above.
Quantity Kind: IC50

[
  {
    "Compound": "CC(Oc1cc(-n2cnc3cnc(CO)cc32)sc1C(N)=O)c1ccccc1OC(F)F (stereo not shown) [Example 53]",
    "Target Entity": "recombinant Plk1 protein (Homo sapiens, UniProt P53350)",
    "IC50": "< 10 nM"
  },
  {
    "Compound": "CCC(Oc1cc(-n2cnc3cnc(CN4CCN(CCN(C)C)CC4)cc32)sc1C(N)=O)c1ccccc1Cl (stereo not shown) [Example 151]",
    "Target Entity": "recombinant Plk1 protein (Homo sapiens, UniProt P53350)",
    "IC50": "100 to 1000 nM"
  },
  {
    "Compound": "Cc1ccccc1C(C)Oc1cc(-n2cnc3cnc(CN4CCN(C)CC4)cc32)sc1C(N)=O (stereo not shown) [Example 148]",
    "Target Entity": "recombinant Plk1 protein (Homo sapiens, UniProt P53350)",
    "IC50": "< 10 nM"
  },
  {
    "Compound": "CC(Oc1cc(-n2cnc3cc(CN4CCOCC4)ncc32)sc1C(N)=O)c1ccccc1F (stereo not shown) [Example 158]",
    "Target Entity": "recombinant Plk1 protein (Homo sapiens, UniProt P53350)",
    "IC50": "1000 to 10000 nM"
  },
  {
    "Compound": "NC(=O)c1sc(-n2cnc3cnc(C(=O)NCCN4CCOCC4)cc32)cc1OCc1ccccc1C(F)(F)F [Example 5]",
    "Target Entity": "recombinant Plk1 protein (Homo sapiens, UniProt P53350)",
    "IC50": "100 to 1000 nM"
  },
  {
    "Compound": "C[C@@H](Oc1cc(-n2cnc3cnc(CN4CCN(CC(=O)N5CCOCC5)CC4)cc32)sc1C(N)=O)c1ccccc1C(F)(F)F [Example 124]",
    "Target Entity": "recombinant Plk1 protein (Homo sapiens, UniProt P53350)",
    "IC50": "10 to 100 nM"
  }
]

Query compound follows.
*Q* Query (compound): CC(Oc1cc(-n2cnc3cnc(CN4CCN(C(=O)N(C)C)CC4)cc32)sc1C(N)=O)c1ccccc1OC(F)F (stereo not shown) [Example 134] ; field requested: IC50
*A* < 10 nM
